system: CEM cells HIV-1 protection, formazan growth assay; test: NCI AIDS Antiviral Assay;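 active means compounds giving half or more protection of infected cells from virus-caused growth loss, again on retest; inactive means the rest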
Possible outcomes: t for active, f for inactive

molecule	study_target	qualitative_label
COC(=O)c1cc(C(=O)Nc2cc(C(=CCC[C@H]3CC[C@@]4(C)[C@@H](CC[C@@H]5[C@@H]4CC[C@]4(C)[C@@H](C(C)CCCC(C)C)CC[C@@H]54)C3)c3cc(NC(=O)c4ccc(OC)c(C(=O)OC)c4)c(OC)c(C(=O)OC)c3)cc(C(=O)OC)c2OC)ccc1OC (some centres undefined)	CEM cells HIV-1 protection, formazan growth assay	f
Nc1cc(Cl)ccc1S	CEM cells HIV-1 protection, formazan growth assay	f
CC(=O)On1c(-c2ccccc2-c2nc3ccccc3n2OC(C)=O)nc2ccccc21	CEM cells HIV-1 protection, formazan growth assay	f
CN1C/C(=C\c2ccncc2)C(=O)/C(=C/c2ccncc2)C1	CEM cells HIV-1 protection, formazan growth assay	t
